Origin of values: the DeepSol protein solubility set

protocol.notes: soluble on expression in E. coli; label from the status in PepcDB or PDB records

{"columns": ["biopolymer.sequence", "soluble on expression in E. coli"],
 "data": [
  ["MNTFKETLFSLKKSNYLLNESAQILNDCVVNNNEIDERLRNSIKFALGIINLASYCLKNEQEQLDHELNHGNEAPWEFSFNEAEQLIECTVKNNFGNEKLVDLIFHIGDAMETYRTTNIKFRVPKSYYDAKQQIRKVIKN", "soluble"],
  ["MSLSRHSNTPATDASVLLVQLSDSHLFAEDGARLLGMDTAHSLEKVVERVAREQPRIDLILATGDVSQDGSLDSYTRFRRLSAPLDAPLRWFAGNHDEREPMQRATEGSDLLEQVVDVGNWRVVLLDSSIPGAVPGYLEEDQLELLRRAIDSAGERFLLVSFHHHPVPIGSDWMDPIGLRNPQALFDLLAPYPQVRCLLWGHIHQEFDRQRGPLRLLASPSTCVQFAPGSSDFTLDRLAPGYRWLRLHDDGRLETGISRVDDVVFEVDYDTAGYEGGSHHHHHH", "soluble"],
  ["GPGSMSGTLLKEELLQLDNKRRSIMRDIEEAMTFLNSTPVGLRGSLVDSEGFPRDDCDLYAVRRARHTVNCGHNDLKSIEATIHEKLSQLHEECRGEAEEQMQRDKMKKKSEDDQRRRDEQKQVMSSKEPFVRVVDVATGSPAEEGGLICGHLIVQYGDVDAEKVLEGGFGEMARVTSSYEGQMLRVWVRSPSDDDCGGARELFIVPQRWRGEGLLGCTFEPMKLN", "soluble"]
]}

---

protocol.notes: soluble on expression in E. coli; label from the status in PepcDB or PDB records
test.readout: soluble on expression in E. coli

{"columns": ["biopolymer.sequence", "observed.result"],
 "data": [
  ["MSFKEIKAEDLQFNPFTRIGSDWMLITAGDEKKFNTMTASWGGAGVFWGKNVVTCYIRPQRYTKEFVDANDTFTLSFYGPECKNALNLCGTVSGRDRDKISEAGLTPYFTEGTAAFEEANLIFVCRKIYQDDMPYENFIAKENDAKYYPNKDYHTMYIAEIVKILVAE", "not soluble"],
  ["MAADPVFKEALQCIRCASCTNVCPVFQLVSGQVYGYIYNGGIGSVLTAFFNSLEDAVDPQSLCIGCRRCAEVCPAKINIPDLVLKLRERVVTKQGLEHHHHHH", "not soluble"],
  ["MSLALLNVDKLSVHFGDESAPFRAVDRISYSVKQGEVVGIVGESGSGKSVSSLAIMGLIDYPGRVMAEKLEFNGQDLQRISEKERRNLVGAEVAMIFQDPMTSLNPCYTVGFQIMEAIKVHQGGNKSTRRQRAIDLLNQVGIPDPASRLDVYPHQLSGGMSQRVMIAMAIACRPKLLIADEPTTALDVTIQAQIIELLLELQQKENMALVLITHDLALVAEAAHKIIVMYAGQVVETGDAHAIFHAPRHPYTQALLRALPEFAQEGHHHHHH", "not soluble"],
  ["MGSDKIHHHHHHMGHQEFMSQEEVDALLKGVTGETDTVDEQRDLSSVRPYNIATQERIVRGRMPGLEIINDRFARLLRIGIFNFMRRTAEISVSQVKVQKYSEFTRNLPIPTNLNLVHVKPLRGTSLFVFDPNLVFFVVDNLFGGDGRFHTRVEGRDFTATEQRIIGKLLNLVFEHYATAWKSVRPLQFEFVRSEMHTQFANVATPNEIVIVTQFSIEFGPTGGTLHICMPYSMIEPIRDVLSSPIQGEALEVDRRWVRVLSQQVQSAEVELSANLAEIPSTFEKILNLRAGDVLPLEIEDTITAKVDGVPVMECGYGIFNGQYALRVQKMISASDTMKEGGYE", "not soluble"],
  ["MIETSLDFSGLNDIAKDLEALSRAENNKVLRDATRAGAEVLKEEVIDRAPVRTGKLKKNVVVVTQKSRRRGEISSGVHIRGVNPRTGNSDNTMKANNPRNAFYWRFVELGTANMPAHPFVRPAYDTREEEAASVAIARMNQAIDEVLSK", "not soluble"],
  ["MCIMCELKNFRRNITCFEGYDENSFIGKWYDDGVWDDEEYWKLENDLIEVRKKYPYPMDIPRYVVIGIGTIIDFLMVPNWKLFEIKASPWLPDSVGINERYERLKTMLRYIFTEKDIVNVQFDYYNKK", "not soluble"]
]}
